- Assay explanation: CEETOX_H295R_11DCORT: CeeTox H295R High-throughput Steroidogenesis Assay for 11-Deoxycortisol (11DCORT) (AID 2283432)
- Particulars: actives raise or lower the signal
Activity calls are given as the source filed them. The calls were made as follows: active = hit-call score of the fitted dose curve at least 0.9, where 1 is the maximum; inactive = score below 0.9.
Respond using exactly one of the listed classes: true (active), false (inactive)

> print(dat)
                                   compound  class.assignment
1  Cc1cc(C)c(C2=C(OC(=O)CC(C)(C)C)C3(CCCC3)OC2=O)c(C)c1              true
2                CNC(=O)Oc1cc(C)c(SC)c(C)c1              true

What did this assay record as the result for C=CC(=O)OCCO ?
false

Called result for CC(C)(C)C(O)C(Oc1ccc(-c2ccccc2)cc1)n1cncn1 (centres undefined)
true

* * *

- Measurement target: human AMP-activated Protein Kinase, alpha 1 (AMPKa1), PRKAA1 (gene 5562)
- Assay explanation: NVS_ENZ_hAMPKa1: NovaScreen (NVS) Enzymatic Assay for human AMP-activated Protein Kinase, alpha 1 (AMPKa1) (AID 2283130)
Inconclusive results are not listed. Active and inactive are the calls of the source. Rule for the calls: active = hit-call score of the fitted dose curve at least 0.9, where 1 is the maximum; inconclusive = response in the unintended direction; inactive = score below 0.9.
Would you mind answering with one of these outcomes? active, inactive

> print(dat)
                                   compound  class.assignment
1            CCCCCCCCCCCCc1ccccc1S(=O)(=O)O            active
2  O=C1c2ccccc2C(=O)N1CCc1noc(-c2ccc(CN3CCCCCC3)s2)n1          inactive

How was CN(C)C(=O)NC1(c2ccccc2)CCN(CCC[C@]2(c3ccc(Cl)c(Cl)c3)CCCN(C(=O)c3ccccc3)C2)CC1 classified in this test?
inactive

For this compound, state the assay outcome: O=C(c1ccc(OCCN2CCCCC2)cc1)c1c(-c2ccc(O)cc2)sc2cc(O)ccc12
active

# outcome recorded in this test, key = COc1ccc(OC(F)(F)F)cc1CN[C@H]1CCCN[C@H]1c1ccccc1
inactive

Recorded test outcome, item CCC(C)N(C)C(=O)c1cc2ccccc2c(-c2ccccc2Cl)n1 (configuration not stated)
inactive

Lab log entry: CCCCCCCC(=O)O — outcome as called in the assay?
inactive

* * *

- Assay explanation: CCTE_Mundy_HCI_hNP1_Pro_ResponderAvgInten: CCTE's Proliferation Assay in human neuroprogenitor cells, Mundy Lab (AID 2284224);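 also: human neural progenitor cells hNP1 derived from WA09 embryonic stem cells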
Results filed as inconclusive are left out. Calls of active or inactive are those of the source. How the source made its calls: active means hit-call score of the fitted dose curve at least 0.9, where 1 is the maximum; inconclusive means response in the unintended direction; inactive means score below 0.9.
Choose one outcome from this list and give only that: active, inactive

> print(dat)
                                   molecule  class.assignment
1  CC1(C)[C@@H](C=C(Cl)Cl)[C@@H]1C(=O)O[C@@H](C#N)c1ccc(F)c(Oc2ccccc2)c1          inactive
2  CC1(C)[C@H](C=C(Cl)Cl)[C@H]1C(=O)OCc1c(F)c(F)cc(F)c1F            active
3                                   O=[As]O            active

So what was the verdict on CCOP(=O)(OCC)SCSCC in this test?
inactive

What classification did COP(=O)(OC)SCN1C(=O)c2ccccc2C1=O end up with in this test?
inactive

Please let me know the test result on file for CCOP(=O)(OCC)OC(Cl)C(Cl)(Cl)Cl (stereo not given) .
inactive

* * *

- Assay explanation: ATG_Ets_CIS: Attagene CIS-FACTORIAL HepG2 Assay for human Erythroblast Transformation Specific (ETS) (AID 2282941)
- Particulars: HepG2 ETS cis-reporter transcription, actives raise or lower the signal
Active and inactive are the calls of the source. How the source made its calls: active means hit-call score of the fitted dose curve at least 0.9, where 1 is the maximum; inactive means score below 0.9.
The reply should be one of these categories: active, inactive

These recorded examples may help you get a feel for the data.
> print(dat)
                                   compound  class.assignment
1         CC1CCC(=O)O1 (stereo unspecified)          inactive
2  O=c1c2ccccc2c(=O)c2c1cc(Cl)c1[nH]c3c([nH]c12)c(Cl)cc1c(=O)c2ccccc2c(=O)c13          inactive
3                                   N#CCCCl          inactive
4                 O=S(=O)(c1ccccc1)c1ccccc1          inactive

What was the test verdict on Cc1ncc(C[n+]2csc(CCO)c2C)c(N)n1 ?
inactive

Outcome? O=[N+]([O-])O
inactive

Which outcome did this test record for the compound C[N+](C)=CCl ?
inactive

// return assay outcome for O=c1[nH]c(Cl)c(Cl)cc1Cl
inactive

So what was the verdict on O=C(CCl)c1ccccc1 in this test?
inactive

How was CC[N+](=O)[O-] classified in this test?
inactive

// return assay outcome for CCN(CC)C(=S)S
inactive

* * *

- Assay explanation: ATG_NRF2_ARE_CIS: Attagene CIS-FACTORIAL HepG2 Assay for human Nuclear Factor Erythroid 2 Related Factor 2 (NFR2) response to Antioxidant Response Elements (ARE) (AID 2282992)
- Particulars: HepG2 Attagene ARE/NRF2 reporter, transcription factor activity; actives raise or lower the signal
Activity calls are given as the source filed them. Rule for the calls: active = hit-call score of the fitted dose curve at least 0.9, where 1 is the maximum; inactive = score below 0.9.
Pick from Yes = active, No = inactive when you respond.

> print(dat)
     molecule  class.assignment
1  C=C(Cl)CCl                No

How did this test come out for CCc1cc(C)cc(CC)c1-c1c(OC(=O)C(C)(C)C)n2n(c1=O)CCOCC2 ?
No

I would be grateful if you could indicate the recorded call for Nc1ccccc1C(=O)Oc1ccc2ccccc2c1 .
Yes

Record request — test call for O=C=Nc1ccccc1
No

Which outcome did this test record for the molecule Oc1ccc(C2(c3ccc(O)cc3)c3ccccc3-c3ccccc32)cc1 ?
No

Returns: the outcome recorded for CCC(C)c1cc([N+](=O)[O-])cc([N+](=O)[O-])c1OC(=O)C=C(C)C (stereo unspecified) in this assay.
Yes

* * *

- Assay explanation: ATG_M_32_CIS: Attagene CIS-FACTORIAL HepG2 Assay for M32 Transcription Factor (Internal Marker) (AID 2282949);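 also: background control marker of the multiplexed CIS panel rather than a real target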
- Particulars: HepG2 Attagene cis-factorial M32 reporter, mRNA; actives raise or lower the signal
- Experimental: ATG_CIS is a cell-based, multiplexed-readout assay that uses HepG2, a human liver cell line, with measurements taken at 24 hours after chemical dosing in a 24-well plate.ATG_M_32_CIS is one of 52 assay component(s) measured or calculated from the ATG_CIS assay. […] This assay endpoint, ATG_M_32_CIS, was analyzed with bidirectional fitting relative to DMSO as the negative control and baseline of activity. […]
The source made the active and inactive calls. Rule for the calls: active = hit-call score of the fitted dose curve at least 0.9, where 1 is the maximum; inactive = score below 0.9.
Measured property: outcome

Look over these answered cases.
> print(dat)
                            chemical.string  observed.value
1                                   N#CCCCl        inactive
2  C[C@]12CC[C@H]3[C@@H](CC[C@@]45O[C@@H]4C(O)=C(C#N)C[C@]35C)[C@@H]1CC[C@@H]2O        inactive
3                                  C=COCCCl        inactive
4                             C[N+](=O)[O-]        inactive
5  CC1CCCC1.[C-]#[O+].[C-]#[O+].[C-]#[O+].[Mn]        inactive
6                                ClCC(Cl)Cl        inactive
7                             O=C(O)C(Br)Br        inactive
8                                    CN(C)N        inactive

outcome recorded for this molecule, CN(N=O)c1ccccc1 , is inactive

get_value(item= O=C(O)CCl , readout=outcome) returns inactive

The recorded outcome for entry ClC1=C(Cl)[C@]2(Cl)[C@@H]3[C@@H](Cl)[C@H](Cl)C[C@@H]3[C@@]1(Cl)C2(Cl)Cl equals inactive

Form field outcome, entry C=Cc1cccc(CCl)c1 : inactive

Looking up Cc1ccccc1CCl , I see its outcome listed as inactive

Sure, the documented outcome for O=c1c2ccccc2c(=O)c2c1cc(Cl)c1[nH]c3c([nH]c12)c(Cl)cc1c(=O)c2ccccc2c(=O)c13 is inactive

* * *

- Assay explanation: ACEA_AR_agonist_AUC_viability: ACEA Biosciences xCELLigence Real-Time Cell Analysis on Androgen Receptor Agonism for Viability (AID 2283775)
Results filed as inconclusive are left out. Activity calls are given as the source filed them. The calls were made as follows: active = hit-call score of the fitted dose curve at least 0.9, where 1 is the maximum; inconclusive = response in the unintended direction; inactive = score below 0.9.
Your answer must be one of the following: True (active), False (inactive)

Name the outcome recorded for CC(C)C#N in the assay.
False

* * *

- Measurement target: X-box-binding protein 1 (Homo sapiens)
- Assay explanation: ATG_Xbp1_CIS: Attagene CIS-FACTORIAL HepG2 Assay for human X-box Binding Protein 1 (XBP1) (AID 2282972)
- Particulars: HepG2 XBP1 cis-element reporter, Attagene multiplex; actives raise or lower the signal
Active and inactive are the calls of the source. Rule for the calls: active = hit-call score of the fitted dose curve at least 0.9, where 1 is the maximum; inactive = score below 0.9.
Hello, when you answer, please use one of the following outcomes: label 1 = active, label 0 = inactive

> print(dat)
                                   compound  class.assignment
1                        C[N+](C)(C)CC(=O)O           label 0
2                              C=CC(=O)OCCO           label 1
3  CN1C[C@H](C(=O)N[C@]2(C)O[C@@]3(O)[C@@H]4CCCN4C(=O)[C@H](Cc4ccccc4)N3C2=O)C=C2c3cccc4[nH]cc(c34)C[C@H]21           label 0
4                    C=CC(=O)OCCCCOC(=O)C=C           label 0
5                          CC(C)(C)C(=O)CCl           label 0

Test call for this compound, please: CC(C)(Cl)Cl
label 0

Status in this test for O=C=Nc1ccccc1 ?
label 0

Just curious, what result did CNC(=O)Oc1cc(C)c(SC)c(C)c1 get here?
label 1

Every entry's value here was drawn from PubChem BioAssay (EPA / NIEHS).
